# Target Entity: human TLR9 (Homo sapiens)
# Sequence (Q9NR96 26-1032): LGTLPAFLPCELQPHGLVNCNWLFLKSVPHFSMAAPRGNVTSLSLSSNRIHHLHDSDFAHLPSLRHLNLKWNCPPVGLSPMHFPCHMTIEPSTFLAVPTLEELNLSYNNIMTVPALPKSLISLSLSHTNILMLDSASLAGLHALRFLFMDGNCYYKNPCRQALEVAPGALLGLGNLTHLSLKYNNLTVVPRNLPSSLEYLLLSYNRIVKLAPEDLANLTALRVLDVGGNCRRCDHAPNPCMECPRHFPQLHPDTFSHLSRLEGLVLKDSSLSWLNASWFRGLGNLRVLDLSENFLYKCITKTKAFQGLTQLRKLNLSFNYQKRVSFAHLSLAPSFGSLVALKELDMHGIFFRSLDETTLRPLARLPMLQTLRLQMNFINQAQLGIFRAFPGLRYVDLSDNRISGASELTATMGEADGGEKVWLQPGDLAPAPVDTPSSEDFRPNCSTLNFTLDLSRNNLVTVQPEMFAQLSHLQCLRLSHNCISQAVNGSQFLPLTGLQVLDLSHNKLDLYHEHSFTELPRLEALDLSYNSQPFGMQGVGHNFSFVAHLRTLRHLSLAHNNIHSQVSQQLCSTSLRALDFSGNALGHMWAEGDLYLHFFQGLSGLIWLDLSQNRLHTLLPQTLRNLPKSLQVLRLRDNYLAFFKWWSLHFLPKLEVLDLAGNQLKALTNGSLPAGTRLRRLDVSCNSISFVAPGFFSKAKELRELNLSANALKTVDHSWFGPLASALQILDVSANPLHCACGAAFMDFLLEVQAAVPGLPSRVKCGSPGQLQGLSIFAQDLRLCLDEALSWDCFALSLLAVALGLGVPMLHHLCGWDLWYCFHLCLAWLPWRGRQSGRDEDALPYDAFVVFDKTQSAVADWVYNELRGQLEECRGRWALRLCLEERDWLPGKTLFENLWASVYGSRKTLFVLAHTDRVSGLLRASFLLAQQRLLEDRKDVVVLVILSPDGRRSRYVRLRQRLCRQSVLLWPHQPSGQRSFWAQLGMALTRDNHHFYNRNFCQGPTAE
# Assay Notes: TLR9 inhibition reporter assay (HEK-Blue SEAP)
# Protocol Conditions: HEK-Blue cells overexpressing human TLR9, stimulated with ODN2006 5 nM, 22 hour incubation
pIC50: −log10 of the molar value.
Parameter pIC50: see the listing below.
Quantity Name: pIC50

>  <Compound>
CCOC1CN(C2CCC(c3n[nH]c4cc(-c5cc(C)c6ncnn6c5)c(C(C)C)cc34)CC2)C1 (single isomer, unassigned) [Example 149]

>  <Quantity Name>
pIC50

>  <Experimental Value>
5.13

$$$$
>  <Compound>
Cc1cc(-c2cc3[nH]nc(C4CCN(C5CCOCC5)CC4)c3cc2C(C)C)cn2ncnc12

>  <Quantity Name>
pIC50

>  <Experimental Value>
5.18

$$$$
>  <Compound>
Cc1cc2c(NCCN3CCCC3)n[nH]c2cc1-c1cc(C)c2ncnn2c1

>  <Quantity Name>
pIC50

>  <Experimental Value>
5.60

$$$$
